# Experiment Description: qHTS assay to identify small molecule agonists of the hypoxia (HIF-1) signaling pathway - cell viability counter screen (AID 1224844); further: nearly all actives have a fitted effect of over 50% in size
# Conditions: HRE-bla ME-180 viability, CellTiter-Glo luminescence, 17 h; series mostly up to 76.8 µM
Records with an inconclusive call do not appear. Activity calls are given as the source filed them. The call rests on the fitted dose curve.
Hi there, use one of these labels in your reply, thanks! active, inactive

Below are worked cases with known answers.
Compound	Class
CCOP(=O)(OCC)Oc1cc(C)nc(C(C)C)n1	inactive
CCC[CH2][Sn]([CH2]CCC)([CH2]CCC)[CH2]CCC	active
c1csc(-c2ccc(-c3cccs3)s2)c1	inactive
CC(=O)[O-].CC(=O)[O-].CC(=O)[O-].[Cr+3]	inactive

Challenge: # lookup: test call for CCOP(=S)(OCC)Oc1cc(C)nc(N(CC)CC)n1
Response given: inactive

Challenge: # lookup: test call for CC(C)C(Nc1ccc(C(F)(F)F)cc1Cl)C(=O)OC(C#N)c1cccc(Oc2ccccc2)c1 (stereo not drawn)
Response given: inactive

Challenge: # lookup: test call for CSC1=N[C@@](C)(c2ccccc2)C(=O)N1Nc1ccccc1
Response given: inactive

###

# Subject Of Test: Estrogen receptor (Homo sapiens) (UniProt P03372)
# Sequence (P03372 whole entry, looked up): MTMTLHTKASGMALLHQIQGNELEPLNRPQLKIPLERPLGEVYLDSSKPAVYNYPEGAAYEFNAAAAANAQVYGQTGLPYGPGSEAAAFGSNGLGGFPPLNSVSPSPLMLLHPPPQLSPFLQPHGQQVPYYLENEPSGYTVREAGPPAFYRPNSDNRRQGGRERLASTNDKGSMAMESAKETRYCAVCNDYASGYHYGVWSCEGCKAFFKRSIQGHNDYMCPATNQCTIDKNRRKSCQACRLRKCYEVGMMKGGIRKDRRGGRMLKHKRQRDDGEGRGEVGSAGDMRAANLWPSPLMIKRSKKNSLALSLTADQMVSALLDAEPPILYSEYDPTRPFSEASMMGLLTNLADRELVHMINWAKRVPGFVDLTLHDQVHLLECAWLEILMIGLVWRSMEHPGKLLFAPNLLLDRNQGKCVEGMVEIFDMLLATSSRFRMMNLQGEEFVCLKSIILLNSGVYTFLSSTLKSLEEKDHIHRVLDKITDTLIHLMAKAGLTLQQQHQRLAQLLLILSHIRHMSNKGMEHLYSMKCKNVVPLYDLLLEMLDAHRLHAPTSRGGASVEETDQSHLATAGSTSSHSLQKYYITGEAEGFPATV
# Experiment Description: qHTS assay to identify small molecule agonists of the estrogen receptor alpha (ER-alpha) signaling pathway in the presence of an antagonist (AID 1259383); further: top concentration of the series differs between compounds; nearly all actives have a fitted effect of over 15% in size
# Conditions: VM7Luc4E2 cells, ERE-luciferase, +ICI-182,780, 22 h; series mostly up to 92.4 µM
Activity calls are given as the source filed them. Calls follow the shape of the full dose curve.
Quantity Kind: outcome

Some compounds with known outcome results, for comparison:
Compound	Test Value
O=C(O)[C@H](O)[C@@H](O)C(=O)O	inactive
Cc1c([N+](=O)[O-])cc2c(c1[N+](=O)[O-])C(C)(C)CC2(C)C	inactive
CC(Cc1ccc2c(c1)OCO2)NO (stereo unspecified)	inactive
COP(=O)(OC)O/C(=C\Cl)c1cc(Cl)c(Cl)cc1Cl	inactive
C#CCO	inactive

Challenge: So what outcome did CCCCN(CCCC)C(=S)S get with Estrogen receptor (Homo sapiens) (UniProt P03372)?
Response given: inactive

Challenge: So what outcome did Cc1ccccc1OP(=O)(Oc1ccccc1C)Oc1ccccc1C get with Estrogen receptor (Homo sapiens) (UniProt P03372)?
Response given: inactive

###

# Experiment Description: A CellTox Green Cytotoxicity Assay to monitor cytotoxicity in HepG2 cells - 16 hour (AID 1224876); further: nearly all actives have a fitted effect of over 45% in size
# Conditions: CellTox Green fluorescence; series mostly up to 76.8 µM
# Description: National Center for Advancing Translational Sciences [NCATS] NIH Chemical Genomics Center [NCGC] U.S. Environmental Protection Agency [EPA] National Institutes of Environmental Health Sciences [NIEHS] National Toxicology Program [NTP] Cell-based models are critical for drug discovery. […] Viable cells produce no appreciable increases in fluorescence. Therefore, the fluorescence signal produced by the binding interaction with dead cell DNA is proportional to cytotoxicity. […]
Results filed as inconclusive are left out. Activity calls are given as the source filed them. Calls come from the whole dose curve; as a rule, active = well fitted activation curve with a large enough effect in the repeat runs; inconclusive = weak or mixed curves; inactive = flat fitted curve, though single readings scatter.
Quantity Kind: outcome

Some compounds with known outcome results, for comparison:
Compound	outcome
CCNS(=O)(=O)C(F)(F)C(F)(F)C(F)(F)C(F)(F)C(F)(F)C(F)(F)C(F)(F)C(F)(F)F	inactive
CC(C)=CC1C(C(=O)OC(C#N)c2cccc(Oc3ccccc3)c2)C1(C)C (stereo not given)	inactive
CC#C[C@]1(O)CC[C@H]2[C@@H]3C[C@H](C)C4=CC(=O)CC[C@]4(C)[C@H]3CC[C@@]21C	inactive
Cc1c([N+](=O)[O-])cc2c(c1[N+](=O)[O-])C(C)(C)CC2(C)C	inactive
CC(=O)C(Cl)C(=O)N(C)C (stereo not given)	inactive
CC1CCCC1	inactive
ClC1=C(Cl)[C@]2(Cl)[C@@H]3[C@H]4C[C@H]([C@@H]5O[C@H]45)[C@@H]3[C@@]1(Cl)C2(Cl)Cl	inactive
CCC1(CC)C(=O)N=C(O)NC1=O	inactive

Challenge: Need outcome of Cc1c([N+](=O)[O-])c(C)c([N+](=O)[O-])c(C(C)(C)C)c1[N+](=O)[O-] , thanks.
Response given: inactive

Challenge: Need outcome of [C-]1=CC=CC1.[Cl][Zr+2][Cl].c1cc[cH-]c1 , thanks.
Response given: inactive

###

# Experiment Description: Caspase-3/7 induction in HepG2 cells by small molecules, qHTS cell viability counter screen (AID 1346981); further: nearly all actives have a fitted effect of over 30% in size
# Conditions: CellTiter-Fluor fluorescence, 17 h; series mostly up to 92.4 µM
Inconclusive results are not listed. The source made the active and inactive calls. The call rests on the fitted dose curve; in most records, active means well fitted cell-killing curve with a large enough effect in the repeat runs; inconclusive means weak or mixed curves, or effect the other way; inactive means flat fitted curve, though single readings scatter.
Hi there, use one of these labels in your reply, thanks! true (1) (active), false (0) (inactive)

Below are worked cases with known answers.
Molecule	Class
CNN	false (0)
C#CC1(O)CCCCC1	false (0)
CC(=O)[O][Sn]([c]1ccccc1)([c]1ccccc1)[c]1ccccc1	true (1)

Challenge: # lookup: test call for CC(C)C(Br)C(=O)NC(N)=O (stereo not drawn)
Response given: false (0)

Challenge: # lookup: test call for c1ccc2nc(N3CCNCC3)ccc2c1
Response given: false (0)

Challenge: # lookup: test call for CNC(=O)O/N=C(\C)C(C)S(C)(=O)=O (stereo not drawn)
Response given: false (0)

Challenge: # lookup: test call for O=[N+]([O-])c1ccc(Cl)c(Cl)c1Cl
Response given: false (0)

Challenge: # lookup: test call for CN(C)c1ccc(N)cc1
Response given: true (1)

###

# Subject Of Test: Cytochrome P450 2C9 (Homo sapiens)
# Experiment Description: Cytochrome P450 Family 2 Subfamily C Member 9 (CYP2C9) small molecule antagonists: luciferase reporter qHTS assay (AID 1671198); further: nearly all actives have a fitted effect of over 50% in size
# Conditions: P450-Glo CYP2C9 enzyme assay, luciferin luminescence; series mostly up to 115 µM
Results filed as inconclusive are left out. Active and inactive are the calls of the source. Calls come from the whole dose curve; as a rule, active = well fitted inhibition curve with a large enough effect in the repeat runs; inconclusive = weak or mixed curves; inactive = no such curve, though single readings can be large or run the other way.
Hi there, use one of these labels in your reply, thanks! active, inactive

Below are worked cases with known answers.
Compound	Class
CC(=O)C(Cl)C(=O)N(C)C (configuration not stated)	inactive
ClC(Cl)C(Cl)(Cl)Cl	inactive
COC(=O)/C=C(\C)OP(=O)(OC)OC	inactive
CCCCCCCCCCCCCCn1cc[n+](C)c1	active
CN/C(=N\[N+](=O)[O-])NCc1cnc(Cl)s1	inactive

Challenge: # lookup: test call for CSC1=N[C@@](C)(c2ccccc2)C(=O)N1Nc1ccccc1
Response given: active

Challenge: # lookup: test call for CCC[CH2][Sn]([CH2]CCC)([O]C(C)=O)[O]C(C)=O
Response given: inactive

Challenge: # lookup: test call for CC(O)C(=O)[O][Hg][c]1ccccc1 (configuration not stated)
Response given: active

Challenge: # lookup: test call for CCNS(=O)(=O)C(F)(F)C(F)(F)C(F)(F)C(F)(F)C(F)(F)C(F)(F)C(F)(F)C(F)(F)F
Response given: active

Challenge: # lookup: test call for S=C=NCCc1ccccc1
Response given: active

Challenge: # lookup: test call for CC(C)=CC1C(C(=O)OC(C#N)c2cccc(Oc3ccccc3)c2)C1(C)C (configuration not stated)
Response given: active

Challenge: # lookup: test call for CC[N+]1(CC)CCC(OC(=O)C(O)(c2ccccc2)c2ccccc2)C1 (configuration not stated)
Response given: inactive

###

# Subject Of Test: Nuclear receptor subfamily 1 group I member 3 (Homo sapiens)
# Experiment Description: qHTS assay to identify small molecule agonists of the constitutive androstane receptor (CAR) signaling pathway (AID 1224839); further: nearly all actives have a fitted effect of over 15% in size;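 on activation: HepG2 cells stably carrying human CAR and a CYP2B6 luciferase reporter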
# Conditions: HepG2 hCAR CYP2B6-luciferase, agonist mode, 24 h; series mostly up to 92.4 µM
Records with an inconclusive call do not appear. Activity calls are given as the source filed them. Calls come from the whole dose curve; as a rule, active = well fitted activation curve with a large enough effect in the repeat runs; inconclusive = weak or mixed curves; inactive = no such curve, though single readings can be large or run the other way.
Hi there, use one of these labels in your reply, thanks! yes (1) (active), no (0) (inactive)

Compound	Class
CC(C)N(C(=O)SC/C(Cl)=C/Cl)C(C)C	no (0)
O=C(N[C@@H]1N=C(c2ccccc2F)c2cccc3c2N(CC3)C1=O)c1cc2ccccc2[nH]1	yes (1)
CC1(C)C(C=C(Cl)Cl)C1C(=O)OC(C#N)c1ccc(F)c(Oc2ccccc2)c1 (stereo not drawn)	no (0)
O=c1[nH]c2cc(Cl)ccc2n1C1CCNCC1	no (0)
CCOP(=S)(OCC)Oc1cc(C)nc(N(CC)CC)n1	yes (1)

Challenge: # lookup: test call for CC#C[C@]1(O)CC[C@H]2[C@@H]3C[C@H](C)C4=CC(=O)CC[C@]4(C)[C@H]3CC[C@@]21C
Response given: no (0)

Challenge: # lookup: test call for CC[C@]1(O)CC[C@H]2[C@@H]3CCC4=CCCC[C@@H]4[C@H]3CC[C@@]21C
Response given: no (0)

Challenge: # lookup: test call for CN1CCc2cc3c(cc2C1O)OCO3 (stereo not drawn)
Response given: no (0)

Challenge: # lookup: test call for CCN1CCC2(CC1)COc1cc3c(cc12)N(C(=O)c1ccc(-c2ccc(-c4nnc(C)o4)cc2C)cc1)CC3
Response given: no (0)

Challenge: # lookup: test call for c1ccc2nc(N3CCNCC3)ccc2c1
Response given: no (0)

Challenge: # lookup: test call for Nc1nc(N)nc(Cl)n1
Response given: no (0)

Challenge: # lookup: test call for COc1cnc(OC)n2nc(NS(=O)(=O)c3c(OCC(F)F)cccc3C(F)(F)F)nc12
Response given: no (0)

Challenge: # lookup: test call for CC1=C2C[C@H]3[C@@H](CC=C4C[C@@H](O)CC[C@@]43C)[C@@H]2CC[C@]12O[C@@H]1C[C@H](C)CN[C@H]1[C@H]2C
Response given: no (0)

src = PubChem BioAssay (Tox21)
